# target or system: rat α1B+α2b+β1b channels (N-type channels) (Rattus norvegicus)
# Construct: expressed in transfected cells
# Sequence (Q02294 whole entry): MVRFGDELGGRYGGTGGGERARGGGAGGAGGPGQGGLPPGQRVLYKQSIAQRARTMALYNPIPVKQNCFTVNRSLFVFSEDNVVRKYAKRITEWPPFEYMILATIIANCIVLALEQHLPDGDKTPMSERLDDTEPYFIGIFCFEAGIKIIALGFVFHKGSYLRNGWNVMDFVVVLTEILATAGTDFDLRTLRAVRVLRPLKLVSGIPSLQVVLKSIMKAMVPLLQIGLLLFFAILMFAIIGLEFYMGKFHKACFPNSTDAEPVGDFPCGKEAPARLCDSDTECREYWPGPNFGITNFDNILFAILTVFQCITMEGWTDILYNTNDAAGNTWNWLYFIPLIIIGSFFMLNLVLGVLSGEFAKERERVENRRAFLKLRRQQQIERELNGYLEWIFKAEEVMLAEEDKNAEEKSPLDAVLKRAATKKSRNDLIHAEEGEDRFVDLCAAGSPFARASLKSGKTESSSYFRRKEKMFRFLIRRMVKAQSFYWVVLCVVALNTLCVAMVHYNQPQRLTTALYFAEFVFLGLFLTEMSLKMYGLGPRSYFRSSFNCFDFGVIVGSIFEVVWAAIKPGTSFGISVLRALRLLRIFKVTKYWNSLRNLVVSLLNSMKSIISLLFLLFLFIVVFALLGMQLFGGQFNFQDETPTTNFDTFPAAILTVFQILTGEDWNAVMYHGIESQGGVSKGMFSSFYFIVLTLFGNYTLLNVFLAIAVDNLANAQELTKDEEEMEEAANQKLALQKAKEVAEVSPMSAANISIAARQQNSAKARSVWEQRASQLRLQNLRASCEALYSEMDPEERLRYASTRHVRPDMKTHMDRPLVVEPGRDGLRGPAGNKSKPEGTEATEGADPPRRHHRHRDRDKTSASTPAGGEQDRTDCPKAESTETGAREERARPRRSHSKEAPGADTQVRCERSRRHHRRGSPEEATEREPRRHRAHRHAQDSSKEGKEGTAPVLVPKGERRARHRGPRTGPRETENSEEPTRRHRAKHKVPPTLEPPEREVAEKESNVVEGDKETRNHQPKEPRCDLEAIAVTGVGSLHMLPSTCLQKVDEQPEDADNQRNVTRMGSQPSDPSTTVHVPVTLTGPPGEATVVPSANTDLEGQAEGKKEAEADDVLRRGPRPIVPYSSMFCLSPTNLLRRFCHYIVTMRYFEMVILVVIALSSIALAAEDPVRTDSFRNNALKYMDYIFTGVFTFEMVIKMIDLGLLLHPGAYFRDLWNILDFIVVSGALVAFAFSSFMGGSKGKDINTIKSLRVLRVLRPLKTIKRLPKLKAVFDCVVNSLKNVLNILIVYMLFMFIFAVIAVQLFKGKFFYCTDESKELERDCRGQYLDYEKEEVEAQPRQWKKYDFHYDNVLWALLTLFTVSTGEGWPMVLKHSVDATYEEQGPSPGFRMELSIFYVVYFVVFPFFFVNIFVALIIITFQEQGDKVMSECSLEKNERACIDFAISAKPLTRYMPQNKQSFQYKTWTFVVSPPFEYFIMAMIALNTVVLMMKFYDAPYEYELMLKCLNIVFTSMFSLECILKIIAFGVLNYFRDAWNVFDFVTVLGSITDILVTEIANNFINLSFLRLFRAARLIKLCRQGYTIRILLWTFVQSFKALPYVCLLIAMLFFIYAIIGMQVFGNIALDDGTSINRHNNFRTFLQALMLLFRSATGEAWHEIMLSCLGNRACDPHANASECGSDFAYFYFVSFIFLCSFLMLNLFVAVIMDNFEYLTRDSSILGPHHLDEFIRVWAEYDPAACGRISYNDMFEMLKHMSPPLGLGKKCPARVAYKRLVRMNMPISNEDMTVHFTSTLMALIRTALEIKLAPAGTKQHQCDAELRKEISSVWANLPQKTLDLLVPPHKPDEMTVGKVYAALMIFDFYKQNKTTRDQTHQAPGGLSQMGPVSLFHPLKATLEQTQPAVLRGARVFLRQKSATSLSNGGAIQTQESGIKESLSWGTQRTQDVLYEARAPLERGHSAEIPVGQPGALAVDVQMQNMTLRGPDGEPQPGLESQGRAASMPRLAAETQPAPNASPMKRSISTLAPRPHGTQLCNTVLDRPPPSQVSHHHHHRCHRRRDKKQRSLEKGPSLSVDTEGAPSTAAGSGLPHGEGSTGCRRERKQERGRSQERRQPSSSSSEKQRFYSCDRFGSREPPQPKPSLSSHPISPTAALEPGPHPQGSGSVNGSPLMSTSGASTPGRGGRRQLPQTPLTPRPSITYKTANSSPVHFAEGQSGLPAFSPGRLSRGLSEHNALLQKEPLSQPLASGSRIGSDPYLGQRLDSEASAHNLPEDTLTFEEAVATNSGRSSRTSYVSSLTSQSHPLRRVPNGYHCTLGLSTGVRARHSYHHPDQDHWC
# method notes: Block of α1B N-type channels, whole cell patch recordings (Example 6)
# Type: cell-based
# measurement conditions: 0.067 Hz; HEK 293, 5 mM barium as charge carrier; read-out: Block of α1B N-type Channels IC50, 0.067 Hz
pIC50: −log10 of the molar value.
metric: pIC50

O=C(CC(c1ccccc1)c1ccccc1)N1CCN(C(c2ccccc2)c2cc(Cl)cc(Cl)c2)CC1 (stereo not drawn) | 6.64
O=C(CC(c1ccccc1)c1ccccc1)N1CCN(C(c2ccccc2)c2ccccc2C(F)(F)F)CC1 (stereo not drawn) | 6.27
Cc1ccc(C(c2ccccc2)N2CCN(C(=O)CC(c3ccccc3)c3ccccc3)CC2)cc1 (stereo not drawn) | 6.31
CCOC(=O)C1CN(C(c2ccccc2)c2ccccc2)CCN1C(=O)CC1c2ccccc2-c2ccccc21 (stereo not drawn) | 6.62
O=C(CC(c1ccccc1)c1ccccc1)N1CCN(C(c2ccccc2)c2cccc(C(F)(F)F)c2)CC1 (stereo not drawn) [Compound P2] | 6.70
COc1ccc(C(c2ccc(C(F)(F)F)cc2)N2CCN(C(=O)CC(c3ccccc3)c3ccccc3)CC2)cc1 (stereo not drawn) | 6.54

[P] O=C(CC(c1ccccc1)c1ccccc1)N1CCN(C(c2ccccc2)c2ccc(Cl)cc2)CC1 (stereo not drawn)
[Q] COc1ccc(C(c2ccc3c(c2)OCO3)N2CCN(C(=O)CC(c3ccccc3)c3ccccc3)CC2)cc1 (stereo not drawn)
[Q] Given P and given Q , which shows the smaller recorded pIC50? To answer, give the label that identifies your chosen option.
[A] Q
(Q: 6.15, P: 6.77)

[I] CCOC(=O)C1CN(C(c2ccccc2)c2ccccc2)CCN1C(=O)CC(c1ccccc1)c1ccccc1 (stereo not drawn) [Compound P43]
[II] CC(C)(C)c1ccc(C(c2ccccc2)N2CCN(C(=O)CC(c3ccccc3)c3ccccc3)CC2)cc1 (stereo not drawn)
[Q] Between I and II , which one shows the larger pIC50 value? To answer, give the label that identifies your chosen option.
[A] I
(I: 6.78, II: 6.43)
